System: LOX IMVI melanoma
Assay: NCI tumour cell line growth inhibition, 48 h
GI50 for assorted compounds

COMPOUND	TARGET OR TEST SYSTEM	GI50
CCCN(CCC)c1ccc(/C=N/NC(=O)c2cccnc2)c(C)c1	LOX IMVI melanoma	13.5 µM
O=C1OC2(c3ccc(O)cc3Oc3cc(O)ccc32)c2cccc3cccc1c23	LOX IMVI melanoma	18.1 µM
COc1ccc(C2c3ccc4ccccc4c3Oc3ncn(CCCn4ccnc4)c(=N)c32)cc1OC (centres undefined)	LOX IMVI melanoma	1.88 µM

[Q] Would you mind telling me what GI50 value was observed for COc1cc2c3c(n(CCCN=[N+]=[N-])c(=O)c2cc1OC)-c1ccc([N+](=O)[O-])cc1C3=O ?
[A] 61 µM

[Q] Would you mind telling me what GI50 value was observed for c1cc[c]([Ge]([O]c2cccc3cccnc23)([c]2ccccc2)[c]2ccccc2)cc1 ?
[A] 3.92 µM

[Q] Would you mind telling me what GI50 value was observed for CC(C)[C@@]12C[C@@H](OC(=O)C3CO3)[C@@](C)(O1)[C@@H]1CC[C@@H](C)[C@H]1[C@@H]2OC(=O)/C=C/c1ccccc1 (some centres undefined) ?
[A] 17 µM

###

Tested on: SNB-19 CNS
Test: NCI tumour cell line growth inhibition, 48 h
TGI for assorted molecules

Some entries whose results are on file:
MOLECULE	TARGET OR TEST SYSTEM	TGI
CCOc1ccccc1/C=N\N=C(N/N=C/c1ccccc1OCC)N/N=C/c1ccccc1OCC	SNB-19 CNS	> 100 µM
COc1cccc([C@@H]2C/C(=N\NC(=O)C(=O)N[C@@H](C)c3ccccc3)c3ccccc3N2)c1	SNB-19 CNS	> 100 µM

Turning now to a further molecule:
[Q] Would you mind telling me what TGI value was observed for COc1ccc(O)c(/C=N\Nc2ccccc2)c1 ?
[A] > 100 µM

###

Tested on: A498 renal
Experiment: NCI tumour cell line growth inhibition, 48 h
VALUE KIND: TGI (µM)
API: value field is a number in µM; no unit string.

Some entries whose results are on file:
COMPOUND	TARGET OR TEST SYSTEM	READING UNIT	MEASURED VALUE
ClCc1ccccc1Cn1cnc2nc(Cl)nc(Cl)c21	A498 renal	µM	4.83
CCOC(=O)c1c(NN2CCN(CC(F)(F)F)CC2)oc(/C=C2\C=Nc3ncccc32)c1O	A498 renal	µM	9.62
CCCCCCOC(=O)CC1=C(C)/C(=C/c2[nH]c(-c3ccc[nH]3)cc2OC)N=C1C	A498 renal	µM	1.33
O=C(NCCCCCCCCNC(=O)Nc1cccc2ccccc12)Nc1cccc2ccccc12	A498 renal	µM	34.7
CCOc1ccccc1/C=N\N=C(N/N=C/c1ccccc1OCC)N/N=C/c1ccccc1OCC	A498 renal	µM	8.45
CC(C)C1=Cc2ccc3c(c2C(=O)C1=O)CCCC3	A498 renal	µM	18.5
Fc1cc2nc3n(c2cc1F)C(c1c(F)cccc1F)SC3 (stereo unspecified)	A498 renal	µM	98.3
N#Cc1c(N)nc2c(c1-c1ccc(Cl)cc1)COc1ccc(F)cc1-2	A498 renal	µM	52.3

Turning now to a further compound:
[Q] Would you mind telling me what TGI value was observed for COc1ccc(C2c3ccc4ccccc4c3Oc3ncn(CCCn4ccnc4)c(=N)c32)cc1OC (stereo unspecified) ?
[A] 4.59

###

TGI for assorted compounds
Tested on: UO-31 renal
Assay: NCI tumour cell line growth inhibition, 48 h

Some entries whose results are on file:
COMPOUND	TGI
CC(=O)NC1=NC(=O)/C(=C/c2ccccc2Cl)N1C	> 100 µM
Cc1nc(C(N)=S)sc1C(=O)CC(=O)C(=O)Nc1ccc(Br)cc1	> 100 µM
NC1=NN(c2ccccc2)C(=O)C1C(=O)C(=O)Nc1ccccc1 (stereo unspecified)	> 100 µM

[Q] Would you mind telling me what TGI value was observed for c1ccc(CSC(SCc2ccccc2)c2cccc3ccccc23)cc1 ?
[A] > 10 µM

[Q] Would you mind telling me what TGI value was observed for CCOC(=O)C1CCCc2sc(N)c(C#N)c21 (stereo unspecified) ?
[A] > 100 µM

[Q] Would you mind telling me what TGI value was observed for Cc1ccc(C(=O)NC2CCCCC2)cc1N=NN(C)C ?
[A] > 100 µM

[Q] Would you mind telling me what TGI value was observed for COc1ccc2c(=O)c3ccoc3[nH]c2c1 ?
[A] > 100 µM

[Q] Would you mind telling me what TGI value was observed for O=C(Nc1ccc(I)cc1F)c1cc(Br)ccc1O ?
[A] 2.24 µM

[Q] Would you mind telling me what TGI value was observed for Cc1cccc(N=Nc2c(C)nn(C(=O)CC(=O)Nc3ccc(Cl)cc3)c2C)c1 ?
[A] > 100 µM

[Q] Would you mind telling me what TGI value was observed for O=C(NCCCCCCCCNC(=O)Nc1cccc2ccccc12)Nc1cccc2ccccc12 ?
[A] 47.5 µM

[Q] Would you mind telling me what TGI value was observed for CCCCCCCCCCCCCCCCc1c(C(=O)OC)nc(NC#N)[nH]c1=O ?
[A] > 25 µM

###

Tested on: HCT-15 colon
Test: NCI tumour cell line growth inhibition, 48 h
log10 TGI for assorted compounds
Hello, just confirming the data are log10 of TGI with units of µM.

Some entries whose results are on file:
COMPOUND	TARGET OR TEST SYSTEM	MEASURED VALUE
O=C1N[C@H]2C(=O)c3c(Br)sc(Br)c3[C@H]2O1	HCT-15 colon	0.60
c1cc[c]([Ge]([O]c2cccc3cccnc23)([c]2ccccc2)[c]2ccccc2)cc1	HCT-15 colon	1.09
O=S1Nc2cccc(C(F)(F)F)c2S1 (stereo not drawn)	HCT-15 colon	1.63
COC(=O)c1c(O)ccc2c1c1c(n2CCc2ccc(OC)c(OC)c2)C(=O)c2ccccc2C1=O	HCT-15 colon	1.47
CCCN(CCC)c1ccc(/C=N/NC(=O)c2cccnc2)c(C)c1	HCT-15 colon	1.68
O=C(CCN1CCCCC1)Nc1ccc2c(c1)C(=O)c1ccc(NC(=O)CCN3CCCCC3)cc1C2=O	HCT-15 colon	0.88

[Q] Would you mind telling me what log10 TGI value was observed for COc1ccc(C(=O)/C=C/c2cc(-c3ccc(OC)c(OC)c3)n[nH]2)cc1OC ?
[A] 0.73

[Q] Would you mind telling me what log10 TGI value was observed for CCCCCCCCCCCCCCCCn1cc[n+](C)c1 ?
[A] 0.33

[Q] Would you mind telling me what log10 TGI value was observed for COc1cc(OC)c(C(=O)/C=C/c2ccc(C#N)cc2)c(OC)c1 ?
[A] 0.62

[Q] Would you mind telling me what log10 TGI value was observed for CC(C)(C)c1cc(C[P+](c2ccccc2)(c2ccccc2)c2ccccc2)cc(C(C)(C)C)c1O ?
[A] 1.08

###

System: U251 CNS
Test: NCI tumour cell line growth inhibition, 48 h
So basically: TGI at 30 µM or higher? That is Met. Lower than 30 µM? That is Not met.

The following compounds have reported results that may help.
COMPOUND	CATEGORY
CCOc1ccc(N(CC(=O)N2CC(=O)Nc3cc(C)c(C)cc32)C(C)=O)cc1	Met
COc1ccc2cc3c4cc(OC)c(OC)cc4ccn3c2c1	Met
Cc1cc(C)c(/C=C2\C(=O)Nc3ccccc32)[nH]1	Met

Attention now shifts to the item below.
[Q] Could you please find out whether O=C(C[C@@H]1CCCN2CCCC[C@H]12)N1c2ccccc2Sc2ccc(Cl)cc21 has TGI that meets 30 µM or exceeds it?
[A] Not met

###

Test system: PC-3 prostate
Assay: NCI tumour cell line growth inhibition, 48 h
VALUE KIND: TGI

[Q] Would you mind telling me what TGI value was observed for O=C(O)CCC(NC(=O)c1ccc(Oc2nc3ccccc3nc2C(=O)O)cc1)C(=O)O (stereo not drawn) ?
[A] > 100 µM

[Q] Would you mind telling me what TGI value was observed for COc1cc(/C=C2\CCC(C)C3=C2N=c2s/c(=C/c4ccc(Cl)cc4)c(=O)n2C3c2cc(OC)c(OC)c(OC)c2)cc(OC)c1OC (stereo not drawn) ?
[A] > 100 µM

[Q] Would you mind telling me what TGI value was observed for CCOc1ccc(-c2nc3ccc(-c4nc5ccc(N6CCN(C)CC6)cc5[nH]4)cc3[nH]2)cc1 ?
[A] 6.19 µM

###

System: SNB-75 CNS
Experiment: NCI tumour cell line growth inhibition, 48 h
TGI for assorted compounds

Some entries whose results are on file:
COMPOUND	TGI
C[N+]1(C(CO)Cc2c[nH]c3ccccc23)Cc2ccccc2C1 (stereo not given)	> 100 µM
N#Cc1c(N)nc2c(c1-c1ccc(Cl)cc1)COc1ccc(F)cc1-2	> 100 µM
O=Cc1ccc(-c2ccc(-c3nc4ccccc4s3)cc2)o1	> 100 µM
CC(=O)NC(CCCNC(=O)N(C)N=O)C(=O)NCc1ccccc1 (stereo not given)	> 100 µM
Cc1nnn(C)c1-c1cnc2c3ccc(C(C)(C)O)cc3n([C@H](c3ccccc3)C3CCOCC3)c2c1	20.3 µM

[Q] Would you mind telling me what TGI value was observed for COC(=O)/C=C1\CCC2[C@@H](C(=O)CC3[C@]2(C)CCC[C@@]3(C)C(=O)OC)C1C (stereo not given in full) ?
[A] 47.9 µM

[Q] Would you mind telling me what TGI value was observed for C[C@]12CC[C@H]3[C@@H](CC=C4C[C@@H](O)CC[C@@]43C)[C@@H]1C/C(=C\c1ccncc1)[C@@H]2O ?
[A] 62.8 µM

[Q] Would you mind telling me what TGI value was observed for CC(=O)NC(CCCCNCc1ccccc1)C(=O)NCc1ccccc1 (stereo not given) ?
[A] > 100 µM
